From: the METLIN SMRT retention time set (Domingo-Almenara et al. 2019)

- Assay protocol: gradient 5% acetonitrile 3 min, to 50% in 2 min, to 85% in 15 min, held 3 min, 100 µL/min
- Details: column: Zorbax Extend-C18 2.1 x 50 mm; eluents: water / acetonitrile, 0.1% formic acid
Please mark 1 if the recorded RP-LC retention time is equal to or greater than 700 s, and 0 if it falls below.

| Compound | Assigned label |
| --- | --- |
| Cc1ccc(-n2nc3c(=O)n(CCCC(=O)NCc4ccc(C)o4)nc(C)c3c2C)cc1 | 1 |
| O=C(c1nc2ccccn2c1-c1ccsc1)N1CCCC1 | 0 |
| O=C(NCCc1ccccc1)c1nnc(-c2ccc(S(=O)(=O)N3CCCC3)cc2)o1 | 1 |
| O=C(NCc1cc(F)cc(F)c1)C1CCCN(c2ccc(-c3ccccc3)nn2)C1 (configuration not stated) | 1 |
| CC(=O)Nc1onc(C)c1-c1ccc(C)c(S(=O)(=O)NCCc2ccc(S(N)(=O)=O)cc2)c1 | 0 |
| Cc1ccccc1OCC(=O)NC(C)c1ccccc1 (configuration not stated) | 1 |
| CCc1nc2c(=O)n(CC(=O)N3CCN(c4cc(C)ccc4C)CC3)nc(C)c2s1 | 1 |
| Cc1nc(-c2cnccn2)nc2c1CCC(=O)N2Cc1cccnc1 | 0 |
| Cc1ccccc1NS(=O)(=O)c1cc(-c2[nH]ncc2C(=O)N(C)C)oc1C | 0 |
| CC(=O)N1c2ccc(S(=O)(=O)N3CCCC3C(=O)NCc3ccc4c(c3)OCO4)cc2CC1C (configuration not stated) | 1 |
| CC(C)Cn1cc(S(=O)(=O)N2CCc3ccccc3C2)c2cccnc21 | 1 |

---

- Assay protocol: gradient 5% acetonitrile 3 min, to 50% in 2 min, to 85% in 15 min, held 3 min, 100 µL/min
- Details: column: Zorbax Extend-C18 2.1 x 50 mm; eluents: water / acetonitrile, 0.1% formic acid
RP-LC retention time reference
Parameter measured: RP-LC retention time (s)

| Compound | Experimental result |
| --- | --- |
| CCC(=O)N1CCCC(C(=O)N2CCOCC2)C1 (stereo not drawn) | 564 |
| CCC(=O)N1CCc2cc(N3CC(C(=O)Nc4ccc(C)cc4C)CC3=O)ccc21 (stereo not drawn) | 742 |
| O=C(Nc1ccc(F)c(Cl)c1)C1CCN(S(=O)(=O)c2ccc3[nH]c(=O)ccc3c2)CC1 | 812 |

---

- Assay protocol: gradient 5% acetonitrile 3 min, to 50% in 2 min, to 85% in 15 min, held 3 min, 100 µL/min
- Details: column: Zorbax Extend-C18 2.1 x 50 mm; eluents: water / acetonitrile, 0.1% formic acid
Please mark y if the recorded RP-LC retention time is equal to or greater than 800 s, and n if it falls below.

| Structure | Assigned label |
| --- | --- |
| Cn1ncc2c3ccccc3n(CC(=O)N3CCN(Cc4ccc5c(c4)OCO5)CC3)c2c1=O | n |
| Cc1sc(NC(=O)c2ccccc2)nc1-c1ccc2c(c1)NC(=O)CO2 | y |
| CC(C)c1ccc(Sc2ccc(N3CCC(C(=O)NCCCO)CC3)nn2)cc1 | n |
| Cc1cc(C)n2c(Nc3ccccc3)c(-c3cccc(Cl)c3)nc2n1 | y |
| CCOc1ccc(S(=O)(=O)N2CCC(C(=O)NCc3ccccn3)CC2)cc1 | n |
| Cc1cc(C(=O)NCCc2ccc(Cl)cc2)n(-c2ccccc2)n1 | y |
| Cn1c(CN2CCN(C(=O)c3cccs3)CC2)nc2cc(C(=O)N3CCCC3)ccc21 | n |
| C=C1C(=O)O[C@@H]2[C@H]3O[C@]3(C)CC/C=C(\C)CC[C@@H]12 | y |
